Tested on: MOLM1 and UCSD/AML1 (averaged)
protocol-details: cell viability relative to DMSO control (POC); higher = less growth inhibition
assay-setup: 1 µM; 72 h
About 180 (8.6%) of roughly 2,100 compounds showed an effect of 50% or more. The sample as a whole holds a higher share of strong results than the screen did.
compounds and their reported cell viability
Please state the figure in %; there is no need to write the unit.

Asked: Which cell viability is listed for C[C@H]1COC2=C1C(=O)C(=O)c1c2ccc2c1CCCC2(C)C ?
Given back: 97.7

Asked: Which cell viability is listed for COc1ccc(-c2oc3c(CC=C(C)C)c(O[C@@H]4O[C@H](CO)[C@@H](O)[C@H](O)[C@H]4O)cc(O)c3c(=O)c2O[C@@H]2O[C@@H](C)[C@H](O)[C@@H](O)[C@H]2O)cc1 ?
Given back: 83

Asked: Which cell viability is listed for Cc1ccc(C(=O)N(CCCN)[C@@H](c2nc3cc(Cl)ccc3c(=O)n2Cc2ccccc2)C(C)C)cc1 ?
Given back: 15.3

Asked: Which cell viability is listed for COc1cc(/C=C/C(=O)O)cc(OC)c1OC ?
Given back: 118

Asked: Which cell viability is listed for CO[C@@H](C(=O)N1Cc2[nH]nc(NC(=O)c3ccc(N4CCN(C)CC4)cc3)c2C1)c1ccccc1 ?
Given back: 13.4

Asked: Which cell viability is listed for COC(=O)C[C@H]1C(C)(C)[C@@H](OC(C)=O)[C@@H]2CC3C4CC(=O)O[C@@H](c5ccoc5)[C@]4(C)CCC3[C@@]1(C)C2=O (stereo not given in full) ?
Given back: 88.1

Asked: Which cell viability is listed for CN(NC(=O)CC(=O)NN(C)C(=S)c1ccccc1)C(=S)c1ccccc1 ?
Given back: 1.23

Asked: Which cell viability is listed for NC(Cn1ccc(=O)c(O)c1)C(=O)O (stereo not given) ?
Given back: 92.7

Asked: Which cell viability is listed for O=c1c(O)c(-c2ccc(O)c(O)c2)oc2cc(O)ccc12 ?
Given back: 94

Asked: Which cell viability is listed for O=C(OOC(=O)c1ccccc1)c1ccccc1 ?
Given back: 101

---

Test system: MOLM1 and UCSD/AML1 (averaged)
protocol-details: cell viability relative to DMSO control (POC); higher = less growth inhibition
assay-setup: 1 µM; 72 h
About 180 (8.6%) of roughly 2,100 compounds showed an effect of 50% or more. Shown is part of a subset that was picked to be rich in strong results.
reported-endpoint: cell viability (%)
Please state the figure in %; there is no need to write the unit.

INSERT INTO measurements (chemical_structure, target_under_test, numeric_value) VALUES
  ('CCCc1cc(OC)c2c(c1)OCO2', 'MOLM1 and UCSD/AML1 (averaged)', 90.2),
  ('COC(=O)C[C@H]1C(C)(C)C(=O)[C@@H]2CC3=C(CC[C@]4(C)C3=CC(=O)O[C@H]4c3ccoc3)[C@@]1(C)C2=O', 'MOLM1 and UCSD/AML1 (averaged)', 93.4),
  ('CC(C)C[C@H](N)C(=O)N[C@@H](C)C(=O)O', 'MOLM1 and UCSD/AML1 (averaged)', 98.2);

Consider now this further molecule.
Asked: Which cell viability is listed for CC(C)=CCC/C(C)=C/CC/C(C)=C/CC/C(C)=C/CC/C(C)=C/CC/C(C)=C/CC/C(C)=C/CC/C(C)=C/CC/C(C)=C/CO ?
Given back: 83.6

---

Test system: MOLM1 and UCSD/AML1 (averaged)
protocol-details: cell viability relative to DMSO control (POC); higher = less growth inhibition
assay-setup: 1 µM; 72 h
About 180 (8.6%) of roughly 2,100 compounds showed an effect of 50% or more. Only a selection was taken, and strong results are over-represented in it overall.
reported-endpoint: cell viability (%)
Please state the figure in %; there is no need to write the unit.

INSERT INTO measurements (compound, reported_endpoint, numeric_value) VALUES
  ('COC(=O)C(C)c1ccc(C(=O)c2cccs2)cc1 (stereo not given)', 'cell viability', 103),
  ('CC(=O)O[C@@H]1CC[C@@]2(C)C(C[C@@H](OC(C)=O)[C@@]3(C)C4=CC(=O)O[C@@H](c5ccoc5)[C@]4(C)CCC23)C1(C)C (stereo partly drawn) [3alpha-ACETOXYDIHYDRODEOXYGEDUNIN]', 'cell viability', 82),
  ('COc1cc(/C=C/C(=O)O)ccc1O', 'cell viability', 104),
  ('CC(C)/C(O)=C1/C(=O)O[C@@H](c2ccoc2)[C@]2(C)C(O)[C@@H](O)[C@@]34OC5(C)OC67CC(C)(C(O)[C@]6(O)[C@@H](O)[C@]3(O5)C12)[C@H](CC(=O)O)[C@]74C (stereo not given in full)', 'cell viability', 93.3),
  ('COc1ccc(-c2cc(=O)c3c(O)c(OC)c(OC)c(OC)c3o2)cc1OC', 'cell viability', 80.2),
  ('S=C(NCc1ccc2c(c1)OCO2)N1CCN(c2ncnc3c2oc2ccccc23)CC1', 'cell viability', 77.9),
  ('CCCCCCc1ccc(O)cc1O.Nc1c2ccccc2nc2ccccc12', 'cell viability', 46.4),
  ('COC(=O)Nc1nc2cc(Sc3ccccc3)ccc2[nH]1', 'cell viability', 41.9),
  ('O=c1cc(-c2cccc3c2Sc2ccccc2S3)oc(N2CCOCC2)c1', 'cell viability', 69.4),
  ('CC(=O)Oc1ccc2c(c1C(C)C)CCC1C(C)(C)CCC[C@]21C (stereo not given in full)', 'cell viability', 91.9);

Asked: Which cell viability is listed for O=C1C=C(O)C(=O)c2ccccc21 ?
Given back: 92.9

---

compounds and their reported cell viability
Test system: MOLM1 and UCSD/AML1 (averaged)
protocol-details: cell viability relative to DMSO control (POC); higher = less growth inhibition
assay-setup: 1 µM; 72 h
In all, about 2,100 compounds went through this assay and about 180 (8.6%) showed an effect of 50% or more. Shown is part of a subset that was picked to be rich in strong results.
Please state the figure in %; there is no need to write the unit.

INSERT INTO assay_data (compound, numeric_value) VALUES
  ('COC(=O)C[C@H]1C(C)(C)C(=O)[C@@H]2CC3C4=CC(=O)O[C@@H](c5ccoc5)[C@]4(C)CC[C@@H]3[C@@]1(C)C2=O (stereo not given in full)', 98.6),
  ('CC(C)=CCC[C@](C)(O)C1CC=C(C)CC1 (stereo not given in full)', 105),
  ('O=c1cc(-c2ccccc2)oc2cc(O)c(O)cc12', 96.6),
  ('OC[C@H]1O[C@@H](O[C@H]2[C@H](O)[C@@H](O)[C@@H](O)O[C@@H]2CO)[C@H](O)[C@@H](O)[C@@H]1O', 105);

Consider now this further compound.
Asked: Which cell viability is listed for O=C(O)[C@H](O)[C@@](O)(Cc1ccc(O)cc1)C(=O)O ?
Given back: 92.1

---

molecules and their reported cell viability
System: MOLM1 and UCSD/AML1 (averaged)
protocol-details: cell viability relative to DMSO control (POC); higher = less growth inhibition
assay-setup: 1 µM; 72 h
Out of some 2,100 compounds screened, about 180 (8.6%) showed an effect of 50% or more. Only a selection was taken, and strong results are over-represented in it overall.
Please state the figure in %; there is no need to write the unit.

Known cell viability results, listed for orientation:
INSERT INTO assay_data (molecule, numeric_value) VALUES
  ('CC1=C2C(O)C(=O)OC3CC4C(C)(C)C(=O)C=C[C@]4(C)C(CC1)[C@]23C (stereo partly drawn)', 89.3),
  ('C=CC(C)(O)CCC1C(=C)CC(OC(C)=O)C2C(C)(C)CCCC12C (stereo not drawn)', 98.6),
  ('CCCCCC(=O)Cc1cc(O)cc(O)c1C(=O)Oc1cc(CC(=O)CCCCC)c(C(=O)O)c(OC)c1', 87.8);

Asked: Which cell viability is listed for CC(C)CCC[C@@H](C)[C@H]1CC[C@H]2[C@@H]3CC=C4CC(=O)CC[C@]4(C)[C@H]3CC[C@]12C ?
Given back: 87.5

Asked: Which cell viability is listed for O=C1c2c(O)ccc(O)c2C(=O)c2c(NCCNCCO)ccc(NCCNCCO)c21 ?
Given back: 8.27

---

compounds and their reported cell viability
Tested on: MOLM1 and UCSD/AML1 (averaged)
protocol-details: cell viability relative to DMSO control (POC); higher = less growth inhibition
assay-setup: 1 µM; 72 h
Structures can show the parent of a compound that is named as a salt. The campaign covered roughly 2,100 compounds. About 180 (8.6%) showed an effect of 50% or more. The full list was thinned out, with strong results kept by preference.

Known cell viability results, listed for orientation:
INSERT INTO measurements (compound, reported_endpoint, result) VALUES
  ('COc1cc(/C=C/CO)ccc1O', 'cell viability', '87.7%'),
  ('CC1(C)CC[C@]2(C(=O)O)CC[C@]3(C)C(=CC[C@@H]4[C@@]5(C)CC[C@H](O)[C@@](C)(CO)[C@@H]5CC[C@]43C)[C@@H]2C1', 'cell viability', '89.4%'),
  ('COc1cccc2c1C(=O)c1c(O)c3c(c(O)c1C2=O)C[C@@](O)(C(=O)CO)C[C@@H]3O[C@H]1C[C@H](N)[C@@H](O)[C@H](C)O1', 'cell viability', '5.86%'),
  ('COc1cc2c(cc1O)CC[C@@H]1[C@@H]2CC[C@]2(C)[C@@H](O)CC[C@@H]12', 'cell viability', '13.7%');

Asked: Which cell viability is listed for COc1cccc2c1C(=O)c1c(O)c3c(c(O)c1C2=O)C[C@@](O)(C(C)=O)C[C@@H]3O[C@H]1C[C@H](N)[C@H](O)[C@H](C)O1 [Daunorubicin HCl (Daunomycin HCl)] ?
Given back: 1.38%

Asked: Which cell viability is listed for CC(=O)O[C@H]1CC[C@]2(C)C(C[C@@H](OC(C)=O)[C@]3(C)C4=CC(=O)O[C@H](c5ccoc5)[C@@]4(C)CCC23)C1(C)C (stereo partly drawn) [3-DEOXO-3beta-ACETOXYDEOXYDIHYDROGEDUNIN] ?
Given back: 92.3%

Asked: Which cell viability is listed for CC(=O)[C@]1(O)Cc2c(O)c3c(c(O)c2[C@@H](O[C@H]2C[C@H](N)[C@H](O)[C@H](C)O2)C1)C(=O)c1ccccc1C3=O [Idarubicin HCl] ?
Given back: 1.49%

Asked: Which cell viability is listed for COC(=O)C[C@H]1C(C)(C)[C@@H](O)[C@@H]2CC3=C4C=C(OC)O[C@@H](c5ccoc5)[C@]4(C)CCC3[C@@]1(C)C2=O (stereo partly drawn) [3-DEOXO-3beta-HYDROXYMEXICANOLIDE 16-ENOL ETHER] ?
Given back: 100%

Asked: Which cell viability is listed for COc1cccc2c1C(=O)c1c(O)c3c(c(O)c1C2=O)C[C@@](O)(C(=O)CO)C[C@@H]3O[C@H]1C[C@H](N)[C@H](O)[C@H](C)O1 [Doxorubicin (Adriamycin)] ?
Given back: 1.61%
